Biological target: T1, human IL-23 (human, UniProt P29460 23-328; Q9NPF7 20-189)
T1 construct: Recombinant (Ebioscience); HIS-tagged in flow cytometry, biotinylated in some assays; also called hIL-23; rhIL-23
T1 sequence 1: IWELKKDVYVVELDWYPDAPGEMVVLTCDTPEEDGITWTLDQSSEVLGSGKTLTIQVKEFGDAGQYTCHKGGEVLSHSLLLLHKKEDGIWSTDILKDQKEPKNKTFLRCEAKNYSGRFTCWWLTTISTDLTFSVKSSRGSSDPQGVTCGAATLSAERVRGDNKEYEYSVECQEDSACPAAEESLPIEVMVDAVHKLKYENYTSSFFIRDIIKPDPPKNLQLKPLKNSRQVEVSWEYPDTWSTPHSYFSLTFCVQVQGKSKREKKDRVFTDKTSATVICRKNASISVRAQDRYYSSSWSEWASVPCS
T1 sequence 2: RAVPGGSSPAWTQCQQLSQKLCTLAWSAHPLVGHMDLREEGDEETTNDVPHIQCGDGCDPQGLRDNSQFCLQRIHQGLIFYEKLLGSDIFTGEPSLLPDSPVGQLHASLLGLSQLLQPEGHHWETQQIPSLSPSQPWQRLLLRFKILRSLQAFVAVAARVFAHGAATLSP
Assay: ELISA, coated IL-23

{"BINDER": "Antibody 36 (antibody, human IgG1, kappa, V domains shown) VH: QVQLVQSGAEVKKPGASVKVSCKASGYTFTDYYMHWVRQAPGQGLEWMGWIDPENGDTEYAPKFQGRVTMTTDTSTSTAYMELRSLRSDDTAVYYCNACKELRYFDVWGQGTMVTVSS VL: EIVMTQSPATLSVSPGERATLSCRASQSISINLHWYQQKPGQAPRLLIYFASQSISGIPARFSGSGSGTEFTLTISSLQSEDFAVYYCQQSNSWPLTFGGGTKVEIKR", "binding result": "binds"}
{"BINDER": "Antibody 34 (antibody, human IgG1, kappa, V domains shown) VH: EVQLVQSGAEVKKPGATVKISCKVSGYTFTDYYMHWVQQAPGKGLEWMGWIDPENGDTEYAPKFQGRVTITADTSTDTAYMELSSLRSEDTAVYYCNACKELRYFDVWGQGTMVTVSS VL: EIVMTQSPATLSVSPGERATLSCRASQSISINLHWYQQKPGQAPRLLIYFASQSISGIPARFSGSGSGTEFTLTISSLQSEDFAVYYCQQSNSWPLTFGGGTKVEIKR", "binding result": "binds"}
{"BINDER": "Antibody 35 (antibody, human IgG1, kappa, V domains shown) VH: QVQLVQSGAEVKKPGASVKVSCKVSGYTLTDYYMHWVRQAPGKGLEWMGWIDPENGDTEYAPKFQGRVTMTEDTSTDTAYMELSSLRSEDTAVYYCNACKELRYFDVWGQGTMVTVSS VL: EIVMTQSPATLSVSPGERATLSCRASQSISINLHWYQQKPGQAPRLLIYFASQSISGIPARFSGSGSGTEFTLTISSLQSEDFAVYYCQQSNSWPLTFGGGTKVEIKR", "binding result": "binds"}
